Attribution: patent US20080182267A1

Test system: ABCG2 (Val12Met mutant)
assayExplanation: Cytotoxicity by sulforhodamine B dye-staining, clone 2-51 (ABCG2 Val12Met)
settings: pig
measuredQuantity: IC50 at 72 h

molecule	measured
CC[C@@]1(O)C(=O)OCc2c1cc1n(c2=O)Cc2cc3ccccc3nc2-1 [Camptothecin, camptothecin]	12.2 nM

---

Test system: ABCG2 (Gln141Lys mutant)
assayExplanation: Cytotoxicity by sulforhodamine B dye-staining, clone 3-28 (ABCG2 Gln141Lys)
settings: pig
measuredQuantity: IC50 at 72 h (nM)

compound	readoutUnits	measured
CC[C@@]1(O)C(=O)OCc2c1cc1n(c2=O)Cc2cc3ccccc3nc2-1 [Camptothecin, camptothecin]	nM	26.8
